# experimental-protocol: molar heat capacity at constant pressure
# measurement-parameters: 298 K; 101.33 kPa; Liquid; Large sample (1 g) DSC
compounds and their reported molar heat capacity at constant pressure

compound | molar heat capacity at constant pressure / J/K/mol
CCCCCC[n+]1ccn(C)c1.O=S(=O)([N-]S(=O)(=O)C(F)(F)F)C(F)(F)F | 583
CCCCCC[n+]1ccccc1.O=S(=O)([N-]S(=O)(=O)C(F)(F)F)C(F)(F)F [1-hexylpyridinium bis(trifluromethylsulfonyl)imide] | 612
CCCCCCn1cc[n+](C)c1.[Br-] [3-hexyl-1-methyl-1H-imidazolium bromide] | 344
CCCCCC[n+]1cccc(C)c1.[Br-] [1-hexyl-3-methylpyridinium bromide] | 343
CCCCCC[n+]1cc(C)cc(C)c1.O=S(=O)([N-]S(=O)(=O)C(F)(F)F)C(F)(F)F | 620
CCCCCC[n+]1cccc(C)c1.O=S(=O)([N-]S(=O)(=O)C(F)(F)F)C(F)(F)F | 624
CCOC(=O)c1ccc[n+](CC)c1.CCOS(=O)(=O)[O-] [3-(ethoxycarbonyl)-1-ethylpyridinium ethylsulfate] | 513
CCOS(=O)(=O)[O-].CC[n+]1cccc(C)c1 [1-ethyl-3-methylpyridinium ethylsulfate] | 389
